Overview of recorded GI50 for various compounds
# Tested on: A375P cell line
# PROTOCOL_DESCRIPTION: A375P cell line proliferation inhibitory activity (MTT assay)
# Type: cell-based
# EXPERIMENTAL_CONDITIONS: A375P cells, 48 hours treatment

Worked examples, 4 compounds total:
>>> print(df.to_string())
                           structure_string  assay_value
0  Cc1ccc(NC(=O)c2cc(N3CCN(C)CC3)cc(C(F)(F)F)c2)cc1NC(=O)c1cnoc1C  10 to 30 µM
1  Cc1ccc(NC(=O)Cc2ccc(-c3ccccc3)cc2)cc1NC(=O)c1cnoc1C  10 to 30 µM
2  Cc1ccc(NC(=O)Nc2cccc(Cl)c2)cc1NC(=O)c1cnoc1C  10 to 30 µM
3  Cc1ccc(NC(=O)Nc2cccc(C(F)(F)F)c2)cc1NC(=O)c1cnoc1C  10 to 30 µM

Q: # GI50 lookup, item Cc1cc(NC(=O)Nc2cccc(C(F)(F)F)c2)ccc1NC(=O)c1cnoc1C
A: 10 to 30 µM

Q: # GI50 lookup, item Cc1ccc(NC(=O)c2cc(N3CCOCC3)cc(C(F)(F)F)c2)cc1NC(=O)c1cnoc1C
A: 10 to 30 µM

Q: # GI50 lookup, item Cc1ccc(NC(=O)Nc2ccc(Cl)c(Cl)c2)cc1NC(=O)c1cnoc1C
A: 10 to 30 µM

Q: # GI50 lookup, item Cc1cn(-c2cc(C(=O)Nc3ccc(C)c(NC(=O)c4cnoc4C)c3)cc(C(F)(F)F)c2)cn1
A: 10 to 30 µM
